test system: Nucleic Acid; assay: Binding affinity to 265 bp of 3'-end-radio-labelled DNA fragment at 0.5 to 5 uM treated 15 mins before Dnase 1-mediated digestion by footprinting assay; type: nucleic-acid assay
Calls of active or inactive are those of the source. The calls are words filed in the database; no cut-off is given here.
Return exactly one item of TRUE = active, FALSE = inactive

CN(C)CCn1c(=O)c2cc3c(cc2c2ccc4ncccc4c21)OCO3	TRUE
CN(C)CCNc1nc2c3ccncc3ccc2c2cc3c(cc12)OCO3	TRUE
COc1cc2c(NCCN(C)C)nc3c4cccnc4ccc3c2cc1OC	TRUE
COc1cc2c(NCCN(C)C)nc3c4ccncc4ccc3c2cc1OC	TRUE
COc1cc2c(NCCCN(C)C)nc3c4cccnc4ccc3c2cc1OC	TRUE

Ask: I would be grateful if you could indicate the recorded call for `CCN(CC)CCCNc1nc2c3cccnc3ccc2c2cc(OC)c(OC)cc12` .
Reply: TRUE

Ask: I would be grateful if you could indicate the recorded call for `CCN(CC)CCn1c(=O)c2cc3c(cc2c2ccc4ncccc4c21)OCO3` .
Reply: TRUE

Ask: I would be grateful if you could indicate the recorded call for `COc1cc2c(NCCCN(C)C)nc3c4ccncc4ccc3c2cc1OC` .
Reply: FALSE

Ask: I would be grateful if you could indicate the recorded call for `CN(C)CCn1c(=O)c2cc3c(cc2c2ccc4cnccc4c21)OCO3` .
Reply: TRUE

Ask: I would be grateful if you could indicate the recorded call for `CN(C)CCNc1nc2c3cccnc3ccc2c2cc3c(cc12)OCO3` .
Reply: TRUE

Ask: I would be grateful if you could indicate the recorded call for `CN(C)CCCNc1nc2c3cccnc3ccc2c2cc3c(cc12)OCO3` .
Reply: TRUE

---

biological target: DNA topoisomerase 1 (Homo sapiens); test: Inhibition of camptothecin-induced poisoning effect of human topoisomerase 1 assessed as suppression of CPT-induced 117 bp DNA cleavage by SDS-PAGE analysis
EXPERIMENTAL_ENDPOINT: inhibition

Example compounds with recorded inhibition:
CN(C)CCCn1c(=O)c2cc3c(cc2c2ccc4cnccc4c21)OCO3	Dose-dependent effect
CN(C)CCCNc1nc2c3cccnc3ccc2c2cc3c(cc12)OCO3	Dose-dependent effect
CN(C)CCn1c(=O)c2cc3c(cc2c2ccc4ncccc4c21)OCO3	Dose-dependent effect
CN(C)CCCn1c(=O)c2cc3c(cc2c2ccc4ncccc4c21)OCO3	Dose-dependent effect
CCN(CC)CCn1c(=O)c2cc3c(cc2c2ccc4ncccc4c21)OCO3	Dose-dependent effect

Ask: Param item = `CN(C)CCNc1nc2c3ccncc3ccc2c2cc3c(cc12)OCO3` ; retrieve measured inhibition.
Reply: Dose-dependent effect

Ask: Param item = `COc1cc2c(=O)n(CCCN(C)C)c3c4cccnc4ccc3c2cc1OC` ; retrieve measured inhibition.
Reply: Dose-dependent effect

Ask: Param item = `CCN(CC)CCCNc1nc2c3cccnc3ccc2c2cc3c(cc12)OCO3` ; retrieve measured inhibition.
Reply: Dose-dependent effect

Ask: Param item = `COc1cc2c(=O)n(CCN(C)C)c3c4ccncc4ccc3c2cc1OC` ; retrieve measured inhibition.
Reply: Dose-dependent effect

Ask: Param item = `COc1cc2c(NCCN(C)C)nc3c4cccnc4ccc3c2cc1OC` ; retrieve measured inhibition.
Reply: Dose-dependent effect

Ask: Param item = `CCN(CC)CCn1c(=O)c2cc(OC)c(OC)cc2c2ccc3cnccc3c21` ; retrieve measured inhibition.
Reply: Dose-dependent effect

---

system: Nucleic Acid; test: Binding affinity to 265 bp of 3'-end-radio-labelled DNA fragment at 0.5 to 5 uM treated 15 mins before Dnase 1-mediated digestion by footprinting assay; format: nucleic-acid assay
Activity calls are given as the source filed them. The rule behind the calls is not given here.
Return exactly one item of YES (active), NO (inactive)

Solved cases below.
CN(C)CCCNc1nc2c3ccncc3ccc2c2cc3c(cc12)OCO3	NO
CCN(CC)CCn1c(=O)c2cc3c(cc2c2ccc4cnccc4c21)OCO3	YES
CCN(CC)CCCNc1nc2c3ccncc3ccc2c2cc(OC)c(OC)cc12	NO
CN(C)CCCn1c(=O)c2cc3c(cc2c2ccc4cnccc4c21)OCO3	YES

# ---- query compound ----
Ask: I would be grateful if you could indicate the recorded call for `CN(C)CCCn1c(=O)c2cc3c(cc2c2ccc4ncccc4c21)OCO3` .
Reply: YES
